The reported measurements were obtained from ChEMBL document CHEMBL1127857.

# GI50 annotations
# Tested on: RXF 393
# ASSAY SUMMARY: Tested for in vitro tumor cell growth inhibition of renal cancer cell line RXF-393
# Format: functional
# EXPERIMENTAL CONDITIONS: Homo sapiens
Report the value in µM with no unit label.

Here is how some compounds turned out for GI50.
smiles_structure=CCOc1cccc(-c2cc(O)c3cc4c(cc3n2)OCO4)c1 tested_system="RXF 393" reported_result=0.275
smiles_structure=COc1cccc(-c2cc(O)c3cc(N(C)C)ccc3n2)c1 tested_system="RXF 393" reported_result=0.0186
smiles_structure=CNc1cccc(-c2cc(O)c3cc4c(cc3n2)OCO4)c1 tested_system="RXF 393" reported_result=0.363
smiles_structure=Oc1cc(-c2cccc(Br)c2)nc2cc3c(cc12)OCO3 tested_system="RXF 393" reported_result=2.4
smiles_structure=Nc1cccc(-c2cc(O)c3cc4c(cc3n2)OCO4)c1 tested_system="RXF 393" reported_result=0.603
smiles_structure=Oc1cc(-c2cccc(OC(F)(F)F)c2)nc2cc3c(cc12)OCO3 tested_system="RXF 393" reported_result=0.0407
smiles_structure=Oc1cc(-c2cccc(OCc3ccccc3)c2)nc2cc3c(cc12)OCO3 tested_system="RXF 393" reported_result=0.407

Q: Tell me reported GI50 for COc1cccc(-c2cc(O)c3cc(N4CCN(C)CC4)ccc3n2)c1 , tested with RXF 393.
A: 0.457

----------
# Test system: OVCAR-4
# ASSAY SUMMARY: Tested for in vitro tumor cell growth inhibition of ovarian cancer cell line OVCAR-4
# Format: functional
# EXPERIMENTAL CONDITIONS: Homo sapiens
OUTCOME MEASURE: GI50

smiles_structure=COc1cccc(-c2cc(O)c3cc(N4CCN(C)CC4)ccc3n2)c1 tested_system=OVCAR-4 reported_result="> 10 µM"
smiles_structure=Nc1ccc2nc(-c3cccc(Cl)c3)cc(O)c2c1 tested_system=OVCAR-4 reported_result="> 100 µM"
smiles_structure=Oc1cc(-c2cccc(Br)c2)nc2cc3c(cc12)OCO3 tested_system=OVCAR-4 reported_result="> 100 µM"

Q: Given the molecule Oc1cc(-c2cccc(Cl)c2)nc2cc3c(cc12)OCO3 , what is its reported GI50?
A: > 75.9 µM

Q: Also CC(=O)Nc1ccc2nc(-c3cccc(Cl)c3)cc(O)c2c1 ?
A: > 100 µM
